- Tested on: HL-60
- experiment: NCI tumour cell line growth inhibition, 48 h
Active and inactive are the calls of the source. Rule as the data show it: active = GI50 up to about 1.1 µM and inactive = higher.
Respond using exactly one of the listed classes: active, inactive

>>> classassignment("COC1=C2CC(C)CC(OC)C(OC(=O)CCCN)C(C)/C=C(\\C)C(OC(N)=O)C(OC)/C=C\\C=C(/C)C(=O)NC(=CC1=O)C2=O (stereo unspecified)")
"active"

// return assay outcome for CSc1[nH]cnc1C(N)=S
inactive

// return assay outcome for Cc1cccc(-c2cc(O)c3cc(C)cnc3n2)c1
active

// return assay outcome for O=C1/C(=C2/CCCN2)C(c2ccc[nH]2)=NN1c1ccccc1
inactive

// return assay outcome for c1ccc2cc3[s+]snc3cc2c1
inactive

// return assay outcome for NC1=Nc2cc(Cl)ccc2Sc2nc3ccccc3n21
inactive

====

- System: EKVX
- experiment: NCI tumour cell line growth inhibition, 48 h
Activity calls are given as the source filed them. Rule as the data show it: active = GI50 up to about 1.1 µM and inactive = higher.
Respond using exactly one of the listed classes: active, inactive

Some solved cases for reference:
>>> classassignment("CCc1nnc(S)n1/N=C\\c1ccc(-c2ccccc2Cl)o1")
"inactive"
>>> classassignment("CCCCOCc1cc(CN2CCN(C)CC2)c(O)c2ncccc12")
"inactive"
>>> classassignment("NNC(=O)CSc1nc2ccc(I)cc2c(=O)n1Cc1ccccc1")
"inactive"
>>> classassignment("COc1ccc2c(c1)CC[C@@H]1[C@@H]2CC[C@]2(C)[C@@H](O)/C(=C/c3ccncc3)C[C@@H]12")
"inactive"
>>> classassignment("C[C@H](c1ccccc1)N1C(=O)[C@@H](O)[C@H]1[C@H](CO)OCc1ccccc1")
"inactive"

// return assay outcome for OCC(O)COc1ccc(F)cc1 (configuration not stated)
inactive

// return assay outcome for N#C/C(=C\c1ccccc1O)C(N)=O
inactive

// return assay outcome for CC(=O)OC1(C)C(=O)OC/C2=C/CN(C)CCC(OC(=O)C(O)(C(C)Cl)CC1C)C2=O.c1ccccc1 (configuration not stated)
inactive

// return assay outcome for CC(C)(C)c1ccnc(/N=C2\N/C(=N\c3cc(C(C)(C)C)ccn3)c3ccccc32)c1
inactive

// return assay outcome for [N-]=[N+]=NC(CBr)c1cn([C@H]2C[C@H](O)[C@@H](CO)O2)c(=O)[nH]c1=O (some centres not stated)
inactive

// return assay outcome for O=c1c2cc(S(=O)(=O)O)ccc2nc(COc2ccc(Oc3ccc(Cl)cc3Cl)cc2)n1-c1ccc(Cl)cc1Oc1c(Cl)cccc1Cl
inactive

// return assay outcome for O=S(=O)(O)c1ccc2c(/N=N/c3ccccc3)c(O)c(S(=O)(=O)O)cc2c1
inactive

// return assay outcome for CC(C)C[C@H](NC(=O)[C@H](Cc1ccccc1)NC(=O)CCc1ccccc1)B(O)O
active

// return assay outcome for CCCCCOC(=O)c1cc2cc(CCl)ccc2oc1=O
inactive

// return assay outcome for CCOC(=O)c1cc2c3c(cc(OC)c2[nH]1)N(C(=O)OCC)CC3
inactive

// return assay outcome for Cc1cc(S(=O)(=O)Nc2nc3ccccc3nc2-c2ccc(Cl)cc2)c(S)cc1Cl
inactive

// return assay outcome for NC1=Nc2cc(Cl)ccc2Sc2nc3ccccc3n21
inactive

====

- Tested on: K562
- experiment: NCI tumour cell line growth inhibition, 48 h
Active and inactive are the calls of the source. No stated cut-off is given here; in the data, active = GI50 up to about 1.1 µM and inactive = higher.
Respond using exactly one of the listed classes: true (active), false (inactive)

>>> classassignment("COc1ccc(OC)c(C2CCc3c(cnc4nc(N)nc(N)c34)C2)c1 (stereo unspecified)")
"true"
>>> classassignment("CN1CCN(CC(=O)Nc2cccc3ccccc23)CC1")
"false"

// return assay outcome for O=C(C(=O)n1ccc2ccccc21)c1c[nH]c2ccccc12
false

// return assay outcome for CCOC(=O)c1ccc(/N=c2/[nH]c3ccccc3s/c2=N/c2ccc(C(=O)OCC)cc2)cc1
false

// return assay outcome for C1=C(N2CCOCC2)/C(=C2\SC(=N/c3ccccc3)/C(=N\c3ccccc3)N2c2ccccc2)CC1
false

// return assay outcome for CN1CCN(CN2C(=O)C3C4C=CC(C3C2=O)C2C3C(=O)N(CN5CCN(C)CC5)C(=O)C3C42)CC1 (stereo unspecified)
false

// return assay outcome for [N-]=[N+]=Nc1ccc2c(c1)Sc1ccccc1N2CCCCN1CCN(Cc2ccc(C(=O)c3ccccc3)cc2)CC1
false

// return assay outcome for NNC(=O)CSc1nc2ccc(I)cc2c(=O)n1Cc1ccccc1
false

// return assay outcome for COC(=O)C1(C)NCCc2c1[nH]c1ccccc21 (stereo unspecified)
false

// return assay outcome for CCOC(=O)[C@@H]1ON2O[C@H](OC3CCCCC3c3ccccc3)C[C@H]3OC(=O)[C@@H]1C32 (stereo partly specified)
false

// return assay outcome for CC1(C)C[C@H]2C3=CC[C@@H]4[C@@]5(C)CC[C@H](O)C(C)(C)[C@@H]5CC[C@@]4(C)[C@]3(C)C[C@@H](O)[C@@]23C[C@@H]1OC3=O
false

// return assay outcome for CO/C(=N\N=C(/C)C(F)(F)F)c1ccncc1
false

// return assay outcome for N#Cc1c(Nc2ccccc2)[n+]([O-])c2ccc(Cl)cc2[n+]1[O-]
false

// return assay outcome for CN(C)C(=S)/N=c1\ss/c(=N\S(=O)(=O)c2ccccc2)n1C
false

// return assay outcome for CN(CCC#N)c1ccc(/C=C2\SC(=S)NC2=O)cc1
false

// return assay outcome for O=C(NC(OCc1ccccc1)(C(F)(F)F)C(F)(F)F)OCc1ccccc1
false
